- Test system: 362531-283-R-J2-PDC complex spheroid viability;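 note: spheroids exposed to the agents for 7 days before readout; luminescence viability as percent of DMSO vehicle control wells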
- Test protocol: Anticancer human tumor 362531-283-R-J2-PDC patient-derived colon adenocarcinoma cell line growth inhibition [RAS]
- Recorded conditions: second compound 0.0316 µM; first compound 0.00316 µM; active compounds read low
Measured endpoint: viability, T/C

Answered examples (2):
Molecule	viability, T/C
O=C(c1ccc(F)c(F)c1Nc1ccc(I)cc1F)N1CC(O)([C@@H]2CCCCN2)C1 + C=CC(=O)N1CCN(c2nc(OCC3CCCN3C)nc3c(F)c(-c4nc(N)cc(C)c4C(F)(F)F)c(Cl)cc23)C(C)C1	103%
C=CC(=O)Nc1cc(Nc2nccc(-c3cn(C)c4ccccc34)n2)c(OC)cc1N(C)CCN(C)C + C#Cc1c(F)ccc2cc(O)cc(-c3ncc4c(N5CC6CCC(C5)N6)nc(OCC56CCCN5CC(F)C6)nc4c3F)c12	96.8%

// next item, viability, T/C requested
I would be grateful if you could share the reported viability, T/C for CCN1CCN(Cc2ccc(Nc3ncc(F)c(-c4cc(F)c5nc(C)n(C(C)C)c5c4)n3)nc2)CC1 + C=CC(=O)N1CCN(c2nc(OCC3CCCN3C)nc3c(F)c(-c4nc(N)cc(C)c4C(F)(F)F)c(Cl)cc23)C(C)C1 .
99.1%
